procedure.text: qHTS profiling of the MIPE4 collection as inhibitors of Plasmodium falciparum (DD2) proliferation (AID 743345)
particulars: P. falciparum Dd2 in erythrocytes, SYBR Green DNA, 72 h; at 28.5 µM (top of the series) unless noted
test.readout: parasite growth remaining, % of DMSO control (lower = more inhibition) (%)
Record the value in %, omitting the unit from your answer.

Here are 2 compounds together with their reported answers.
Oc1ccc2c3c1O[C@H]1c4[nH]c5c(c4C[C@@]4(O)[C@@H](C2)N(CC2CC2)CC[C@]314)C[C@@]1(O)[C@H]2Cc3ccc(O)c4c3[C@@]1(CCN2CC1CC1)[C@H]5O4 ... 25.9
CN(C)NC(=O)CCC(=O)O ... 101

Would you kindly share the measured parasite growth remaining, % of DMSO control (lower = more inhibition) for `O=C(Oc1ccc([N+](=O)[O-])cc1)N1CCN(Cc2cccc(Oc3ccccc3)c2)CC1` ?
92.5

Looking for the measured parasite growth remaining, % of DMSO control (lower = more inhibition) of `CC1=C(O)C(=O)C=C2C1=CC=C1[C@@]2(C)CC[C@@]2(C)[C@@H]3C[C@](C)(C(=O)O)CC[C@]3(C)CC[C@]12C` , can you help?
7.57

Look at this compound and give its reported parasite growth remaining, % of DMSO control (lower = more inhibition). `O=C(N[C@@H](COc1ccc2[nH]c(=O)[nH]c2c1)c1ccccc1)c1cccn(Cc2ccc(F)c(F)c2)c1=O`
85.6

Where these numbers come from: PubChem BioAssay (NCATS)
